test.system: T1, Aβ1-42 fibrils (human)
T1 construct: Aβ1-42 polypeptide, HFIP-treated, incubated in 10 mM HCl at 37 C for 24 h, pelleted fibrillar fraction, sonicated; Multimeric fibril; also called fibril Aβ42; fibrillar Aβ42
T1 sequence (peptide, as listed by the source): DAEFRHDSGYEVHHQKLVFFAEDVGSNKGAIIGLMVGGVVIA
method.notes: SPR (BIAcore T200); Aβ1-42 fibrils immobilized, Fab as analyte; global 1:1 fit
parameter.measured: koff (s⁻¹)

• h2931 Fab (Fab, V domains shown) VH: EVQLLESGGGLVQPGGSLRLSCAASGFTFSNFGMSWVRQAPGKGLEWVASVRSGSGRTYYSDNVKGRFTISRDNSKNTLYLQMNSLRAEDTAVYYCVRYDHYTGTSDYWGQGTLVTVSS VL: DVVMTQSPLSLPVTLGEPASISCKSSQSLLDYDGKTYLNWLLQKPGQSPQRLIYRVTNRDTGVPDRFSGSGSGTDFTLKISRVEAEDVGVYYCWQGTHFPRSFGQGTKVEIK = 0.000199
• h2731 Fab (Fab, V domains shown) VH: EVQLLESGGGLVQPGGSLRLSCAASGFTFSNYGMSWVRQAPGKGLEWVASIRSGSGRTYYSDNVKGRFTISRDNSKNTLYLQMNSLRAEDTAVYYCVRYDHYSGSSDYWGQGTLVTVSS VL: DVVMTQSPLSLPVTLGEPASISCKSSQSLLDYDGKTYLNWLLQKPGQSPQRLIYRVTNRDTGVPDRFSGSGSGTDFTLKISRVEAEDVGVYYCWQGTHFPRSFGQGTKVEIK = 0.000289
• h2831 Fab (Fab, V domains shown) VH: EVQLLESGGGLVQPGGSLRLSCAASGFTFSNFGMSWVRQAPGKGLEWVASVRSGSGRTYYSDNVKGRFTISRDNSKNTLYLQMNSLRAEDTAVYYCVRYDHYSGTSDYWGQGTLVTVSS VL: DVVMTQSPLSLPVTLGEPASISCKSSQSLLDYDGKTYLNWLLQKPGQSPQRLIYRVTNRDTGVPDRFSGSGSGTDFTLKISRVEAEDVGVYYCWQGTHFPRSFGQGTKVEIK = 0.000248
• h2726 Fab (Fab, V domains shown) VH: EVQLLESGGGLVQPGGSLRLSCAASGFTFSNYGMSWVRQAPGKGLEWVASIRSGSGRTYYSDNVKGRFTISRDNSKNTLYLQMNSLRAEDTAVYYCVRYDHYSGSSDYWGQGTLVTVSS VL: DVVMTQSPLSLPVTPGEPASISCKSSQSLLDYDGKTYLNWLLQKPGQSPQRLIYKVSNRDSGVPDRFSGSGSGTDFTLKISRVEAEDVGVYYCWQGTHFPRTFGQGTKVEIK = 0.000259
